The measured values listed here are drawn from patent EP4671273A1.

Consider the following binders and their measured pKd readings.
- tgt: T1, Recombinant hIL-21-Fc (AcroBiosystems) (human, UniProt Q9HBE4 30-162)
- T1 construct: bought; also called rhIL-21; not shown: Fc of the bought reagent, not described
- assay-explanation: SPR, Fab on captured rhIL-21-Fc
pKd: −log10 of the molar value.
readout-name: pKd

binder	readout-name	test-value
ZAP122m19 Fab (Fab, V domains shown, Fab) VH: QVQLQESGPGLVKPSETLSLTCTVSGGSISSDFWGWIRQPPGKGLEWIGYISSRGSTNYNPSLKRRVTISVDTSRNQFSLKLSSVTAADTAVYYCAASAGVTDFDFWGQGTLVTVSS VL: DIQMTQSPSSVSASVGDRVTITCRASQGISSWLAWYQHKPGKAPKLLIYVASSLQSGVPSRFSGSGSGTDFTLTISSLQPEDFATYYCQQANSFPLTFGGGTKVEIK	pKd	8.22
ZAP122m3 Fab (Fab, V domains shown, Fab) VH: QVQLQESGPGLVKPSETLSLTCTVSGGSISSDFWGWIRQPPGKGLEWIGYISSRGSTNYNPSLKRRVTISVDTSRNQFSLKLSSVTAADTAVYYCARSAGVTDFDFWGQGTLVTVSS VL: DIQMTQSPSSVSASVGDRVTITCRASQGISSWLAWYQHKPGKAPKLLIYAASSLQSGVPSRFSGSGSGTDFTLTISSLQPEDFATYYCQQANSFPLTFGGGTKVEIK	pKd	9.60
ZAP122m9 Fab (Fab, V domains shown, Fab) VH: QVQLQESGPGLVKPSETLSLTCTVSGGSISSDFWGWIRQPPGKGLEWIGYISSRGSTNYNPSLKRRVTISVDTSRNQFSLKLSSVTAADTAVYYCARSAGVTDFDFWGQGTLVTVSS VL: DIQMTQSPSSVSASVGDRVTITCRASQGISSWLAWYQHKPGKAPKLLIYVASSLQSGVPSRFSGSGSGTDFTLTISSLQPEDFATYYCQQANSFALTFGGGTKVEIK	pKd	9.60
